These entries and their values trace back to patent US12495798B2.

Test system: soybean
Procedure details: Phytotoxicity test for field crops (soil treatment test)
Type: in vivo
Parameters: key: 0 (no harm); 9 (complete withered)
Particulars: 50 g ai/ha; Soybean (10 days after treatment)
Endpoint label: Soil treatment phytotoxicity, Soybean
Numbers only.

Below are worked cases with known answers.
- Smiles structure: "Cn1ncnc1COc1nc(C(F)(F)F)ccc1C(=O)Nc1nnnn1C"
  Measured: 0
- Smiles structure: "Cn1nnc(COCc2nc(C(F)(F)Cl)ccc2C(=O)Nc2nnnn2C)n1"
  Measured: 0
- Smiles structure: "Cn1nnnc1NC(=O)c1ccc(C(F)(F)F)nc1OCc1nnnn1C(F)F"
  Measured: 0

Below: the item to evaluate.
Which measured Soil treatment phytotoxicity, Soybean value corresponds to `Cn1nnnc1COc1nc(C(F)(F)F)ccc1C(=O)Nc1nnnn1C` ?
3

---

Tested on: cotton
Procedure details: Phytotoxicity test for upland field crops (foliar treatment test)
Format: in vivo
Particulars: 100 g ai/ha, Cotton (7 days after treatment)
Please mark Condition met if the recorded Foliar treatment phytotoxicity, Cotton is equal to or greater than 3, and Condition not met if it falls below.

A selection of reference data follows.
- Compound: "CN(Cc1nnn(C)n1)c1nc(C(F)(F)F)ccc1C(=O)Nc1nnnn1C"
  Class: "Condition not met"
- Compound: "Cn1ncnc1COc1nc(C(F)(F)F)ccc1C(=O)Nc1nnnn1C"
  Class: "Condition met"
- Compound: "Cn1nnnc1COCc1nc(C(F)(F)F)ccc1C(=O)Nc1nnnn1C"
  Class: "Condition not met"
- Compound: "Cn1nnc(CSCc2nc(C(F)(F)F)ccc2C(=O)Nc2nnnn2C)n1"
  Class: "Condition not met"

hey, is Foliar treatment phytotoxicity, Cotton for this one >= 3? `Cn1nnc(COCc2nc(C(F)(F)C(F)(F)F)ccc2C(=O)Nc2nnnn2C)n1`
Condition met

Try COC(=O)OC(C)N(C(=O)c1ccc(C(F)(F)F)nc1COCc1nnn(C)n1)c1nnnn1C (centres unmarked) next.
Condition not met

Try `Cn1cnc(COCc2nc(C(F)F)ccc2C(=O)Nc2nnnn2C)n1` next.
Condition met

Try `CON(Cc1nnn(C)n1)Cc1nc(C(F)(F)F)ccc1C(=O)Nc1nnnn1C` next.
Condition met

Try `Cn1ncnc1COCc1nc(C(F)(F)F)ccc1C(=O)Nc1nnnn1C` next.
Condition met

Try `Cn1nnnc1NC(=O)c1ccc(C(F)(F)F)nc1OCc1nnnn1C(F)F` next.
Condition met

Try `Cn1nnc(COc2nc(C(F)(F)F)ccc2C(=O)Nc2nnnn2C)n1` next.
Condition met

---

System: cotton
Procedure details: Phytotoxicity test for upland field crops (foliar treatment test)
Format: in vivo
Particulars: 100 g ai/ha, Cotton (7 days after treatment)
I'd appreciate it if you could supply Foliar treatment phytotoxicity, Cotton values for the items below.

Below are worked cases with known answers.
- Compound: "Cn1nnnc1NC(=O)c1ccc(C(F)(F)F)nc1Sc1nnnn1C [Compound No. 1-40]"
  Test system: "cotton"
  Endpoint label: "Foliar treatment phytotoxicity, Cotton"
  Measured: 3
- Compound: "CCOC(=O)OC(C)N(C(=O)c1ccc(C(F)(F)F)nc1COCc1nnn(C)n1)c1nnnn1C (stereo not shown) [Compound No. 4-8]"
  Test system: "cotton"
  Endpoint label: "Foliar treatment phytotoxicity, Cotton"
  Measured: 0
- Compound: "Cc1nc(COCc2nc(C(F)(F)F)ccc2C(=S)Nc2nnnn2C)nn1C [Compound No. 2-117]"
  Test system: "cotton"
  Endpoint label: "Foliar treatment phytotoxicity, Cotton"
  Measured: 4
- Compound: "Cn1nnc(COCc2nc(C(F)(F)F)ccc2C(=S)Nc2nnnn2C)n1 [Compound No. 2-106]"
  Test system: "cotton"
  Endpoint label: "Foliar treatment phytotoxicity, Cotton"
  Measured: 5
- Compound: "Cn1nnnc1CSc1nc(C(F)(F)F)ccc1C(=S)Nc1nnnn1C [1-44]"
  Test system: "cotton"
  Endpoint label: "Foliar treatment phytotoxicity, Cotton"
  Measured: 5

Would you mind listing Foliar treatment phytotoxicity, Cotton for each of the following compounds?
1. Cc1nc(COCc2nc(C(F)(F)F)ccc2C(=O)Nc2nnnn2C)nn1C [Compound No. 2-116]
2. Cn1nnc(COCc2nc(C(F)(F)Cl)ccc2C(=O)Nc2nnnn2C)n1 [Compound No. 2-78]
3. Cn1nnc(COCc2nc(C(F)(F)F)ccc2C(=O)N(C(=O)c2ccccc2)c2nnnn2C)n1 [Compound No. 2-68]
4. Cn1nnc(COCc2nc(C(F)F)ccc2C(=O)Nc2nnnn2C)n1 [Compound No. 2-84]
5. Cn1nc(COCc2nc(C(F)(F)F)ccc2C(=O)Nc2nnnn2C)nc1Cl [Compound No. 2-135]

1. 3
2. 6
3. 5
4. 5
5. 3

---

Test system: rice
Procedure details: Phytotoxicity test for field crops (soil treatment test)
Format: in vivo
Particulars: 50 g ai/ha; Rice (20 days after treatment)
Endpoint label: Soil treatment phytotoxicity, Rice
Give bare numbers.

Would you mind listing Soil treatment phytotoxicity, Rice for each of the following molecules?
1. Cn1nnnc1COc1nc(C(F)(F)F)ccc1C(=O)Nc1nnnn1C
2. Cn1nnnc1COc1nc(C(F)(F)F)ccc1C(=S)Nc1nnnn1C
3. Cn1nc(COCc2nc(C(F)(F)F)ccc2C(=O)Nc2nnnn2C)nc1Br
4. Cn1nnc(CSCc2nc(C(F)(F)F)ccc2C(=O)N(c2nnnn2C)S(C)(=O)=O)n1

[7, 5, 4, 0]

Would you mind listing Soil treatment phytotoxicity, Rice for each of the following molecules?
1. Cn1ncnc1COCc1nc(C(F)(F)F)ccc1C(=O)Nc1nnnn1C
2. Cc1nc(COCc2nc(C(F)(F)F)ccc2C(=S)Nc2nnnn2C)nn1C
3. Cn1nnc(COCc2nc(C(F)(F)F)ccc2C(=S)Nc2nnnn2C)n1
4. Cn1nnc(COc2nc(C(F)(F)F)ccc2C(=O)Nc2nnnn2C)n1
5. Cn1nc(COCc2nc(C(F)(F)F)ccc2C(=O)Nc2nnnn2C)nc1C#N
6. Cn1nnc(COCc2nc(C(F)(F)F)ccc2C(=O)N(C(=O)c2ccccc2)c2nnnn2C)n1
7. Cn1ncnc1COc1nc(C(F)(F)F)ccc1C(=O)Nc1nnnn1C
8. Cn1nnc(CSCc2nc(C(F)(F)F)ccc2C(=O)N(C(=O)c2ccccc2)c2nnnn2C)n1

[5, 2, 8, 3, 1, 7, 9, 0]

Would you mind listing Soil treatment phytotoxicity, Rice for each of the following molecules?
1. Cn1nnnc1NC(=O)c1ccc(C(F)(F)F)nc1Sc1nnnn1C
2. Cn1cnc(COCc2nc(C(F)F)ccc2C(=O)Nc2nnnn2C)n1
3. Cc1nc(COCc2nc(C(F)(F)F)ccc2C(=O)Nc2nnnn2C)nn1C
4. Cn1nnc(CSCc2nc(C(F)F)ccc2C(=O)Nc2nnnn2C)n1
5. Cn1nnc(COCc2nc(C(F)(F)C(F)(F)F)ccc2C(=O)Nc2nnnn2C)n1

0
0
3
0
7

Would you mind listing Soil treatment phytotoxicity, Rice for each of the following molecules?
1. COc1nc(COCc2nc(C(F)(F)F)ccc2C(=O)Nc2nnnn2C)nn1C
2. Cn1nc(COCc2nc(C(F)(F)F)ccc2C(=O)Nc2nnnn2C)nc1Cl
3. CCOC(=O)OC(C)n1nnn(C)c1=NC(=O)c1ccc(C(F)(F)F)nc1CSCc1nnn(C)n1 (stereo not drawn)
4. CON(Cc1nnn(C)n1)Cc1nc(C(F)(F)F)ccc1C(=O)Nc1nnnn1C

1: 6; 2: 8; 3: 0; 4: 9

---

Test system: black nightshade
Procedure details: Herbicidal activity test against upland field weeds (soil treatment test)
Format: in vivo
Particulars: 50 g ai/ha, scale 0 (no control) to 100 (complete control)
Endpoint label: Soil treatment herbicidal activity, black nightshade
One number for each entry.

- Compound: "Cn1nnc(C[S+]([O-])Cc2nc(C(F)F)ccc2C(=O)Nc2nnnn2C)n1 (stereo not drawn)"
  Measured: 90
- Compound: "Cn1nnc(COCc2nc(C(F)F)ccc2C(=O)Nc2nnnn2C)n1"
  Measured: 100
- Compound: "CCOC(=O)OC(C)N(C(=S)c1ccc(C(F)(F)F)nc1CSCc1nnn(C)n1)c1nnnn1C (stereo not drawn)"
  Measured: 100
- Compound: "Cn1nnnc1COc1nc(C(F)(F)F)ccc1C(=S)Nc1nnnn1C"
  Measured: 0
- Compound: "CON(Cc1nnn(C)n1)Cc1nc(C(F)F)ccc1C(=O)Nc1nnnn1C"
  Measured: 100

Would you mind listing Soil treatment herbicidal activity, black nightshade for each of the following compounds?
1. CCOC(=O)OC(C)N(C(=O)c1ccc(C(F)(F)F)nc1COCc1nnn(C)n1)c1nnnn1C (stereo not drawn)
2. Cn1ncnc1COc1nc(C(F)(F)F)ccc1C(=O)Nc1nnnn1C
3. Cn1nnc(COCc2nc(C(F)(F)F)ccc2C(=O)Nc2nnnn2C)n1
4. Cn1nnc(CSCc2nc(C(F)(F)F)ccc2C(=O)Nc2nnnn2C)n1
5. Cn1nnnc1NC(=O)c1ccc(C(F)(F)F)nc1OCc1nnnn1C(F)F

1. 100
2. 100
3. 100
4. 100
5. 100

Would you mind listing Soil treatment herbicidal activity, black nightshade for each of the following compounds?
1. C#CCN(Cc1nnn(C)n1)c1nc(C(F)(F)F)ccc1C(=O)Nc1nnnn1C
2. CON(Cc1nnn(C)n1)Cc1nc(C(F)(F)Cl)ccc1C(=O)Nc1nnnn1C

[100, 100]
